# Tested on: Streptococcus pneumoniae
# protocol.description: Antibacterial activity against erythromycin-susceptible Streptococcus pneumoniae ATCC 49619
# Type: functional
MIC: recorded values
API: value field is a number in µg/mL; no unit string.

# count of solved cases: 2
CC[C@H]1OC(=O)[C@H](C)[C@@H](O[C@H]2C[C@@](C)(OC)[C@@H](OC(=O)NCc3cn(Cc4ccc(Cl)cc4Cl)nn3)[C@H](C)O2)[C@H](C)[C@@H](O[C@@H]2O[C@H](C)C[C@H](N(C)C)[C@H]2O)[C@](C)(O)C[C@@H](C)CN(C)[C@H](C)[C@H]2OC(=O)O[C@@]21C | 1
CC[C@H]1OC(=O)[C@H](C)[C@@H](O[C@H]2C[C@@](C)(OC)[C@@H](OC(=O)NCc3cn(Cc4ccc(C)cc4)nn3)[C@H](C)O2)[C@H](C)[C@@H](O[C@@H]2O[C@H](C)C[C@H](N(C)C)[C@H]2O)[C@](C)(O)C[C@@H](C)CN(C)[C@H](C)[C@H]2OC(=O)O[C@@]21C | 1

Read the next record carefully.
## Task Entry CC[C@H]1OC(=O)[C@H](C)[C@@H](O[C@H]2C[C@@](C)(OC)[C@@H](OC(=O)NCc3cn(Cc4cccc(C)c4)nn3)[C@H](C)O2)[C@H](C)[C@@H](O[C@@H]2O[C@H](C)C[C@H](N(C)C)[C@H]2O)[C@](C)(O)C[C@@H](C)CN(C)[C@H](C)[C@H]2OC(=O)O[C@@]21C has what MIC?
## Result 1

----------
# Tested on: Staphylococcus aureus
# protocol.description: Antibacterial activity against erythromycin-susceptible Staphylococcus aureus ATCC 25923
# Type: functional
measured.attribute: log10 MIC (log10 of the value in µg/mL)
Kindly note that the scale is log10 and the underlying MIC is in µg/mL.

CC[C@H]1OC(=O)[C@H](C)[C@@H](O[C@H]2C[C@@](C)(OC)[C@@H](OC(=O)NCc3cn(Cc4ccc(Cl)cc4)nn3)[C@H](C)O2)[C@H](C)[C@@H](O[C@@H]2O[C@H](C)C[C@H](N(C)C)[C@H]2O)[C@](C)(O)C[C@@H](C)CN(C)[C@H](C)[C@@H](OC(=O)NCc2ccc(OC)cc2)[C@]1(C)O | -2.10
CC[C@H]1OC(=O)[C@H](C)[C@@H](O[C@H]2C[C@@](C)(OC)[C@@H](OC(=O)NCc3cn(Cc4ccccc4)nn3)[C@H](C)O2)[C@H](C)[C@@H](O[C@@H]2O[C@H](C)C[C@H](N(C)C)[C@H]2O)[C@](C)(O)C[C@@H](C)CN(C)[C@H](C)[C@@H](O)[C@]1(C)O | 0.00
CC[C@H]1OC(=O)[C@H](C)[C@@H](O[C@H]2C[C@@](C)(OC)[C@@H](OC(=O)NCc3cn(Cc4ccccc4)nn3)[C@H](C)O2)[C@H](C)[C@@H](O[C@@H]2O[C@H](C)C[C@H](N(C)C)[C@H]2O)[C@](C)(O)C[C@@H](C)CN(C)[C@H](C)[C@@H](OC(=O)NCc2ccncc2)[C@]1(C)O | 0.00
CC[C@H]1OC(=O)[C@H](C)[C@@H](O[C@H]2C[C@@](C)(OC)[C@@H](OC(=O)NCc3cn(Cc4ccc(Cl)cc4Cl)nn3)[C@H](C)O2)[C@H](C)[C@@H](O[C@@H]2O[C@H](C)C[C@H](N(C)C)[C@H]2O)[C@](C)(O)C[C@@H](C)CN(C)[C@H](C)[C@@H](OC(=O)NCc2ccc(OC)cc2)[C@]1(C)O | -0.60
CC[C@H]1OC(=O)[C@H](C)[C@@H](O[C@H]2C[C@@](C)(OC)[C@@H](OC(=O)NCc3cn(Cc4ccccc4C)nn3)[C@H](C)O2)[C@H](C)[C@@H](O[C@@H]2O[C@H](C)C[C@H](N(C)C)[C@H]2O)[C@](C)(O)C[C@@H](C)CN(C)[C@H](C)[C@@H](O)[C@]1(C)O | 0.00
CC[C@H]1OC(=O)[C@H](C)[C@@H](O[C@H]2C[C@@](C)(OC)[C@@H](OC(=O)NCc3cn(C4CCCCC4)nn3)[C@H](C)O2)[C@H](C)[C@@H](O[C@@H]2O[C@H](C)C[C@H](N(C)C)[C@H]2O)[C@](C)(O)C[C@@H](C)CN(C)[C@H](C)[C@H]2OC(=O)O[C@@]21C | 1.20

## Task Look up log10 MIC for this compound: CC[C@H]1OC(=O)[C@H](C)[C@@H](O[C@H]2C[C@@](C)(OC)[C@@H](OC(=O)NCc3cn(Cc4ccc(Cl)cc4Cl)nn3)[C@H](C)O2)[C@H](C)[C@@H](O[C@@H]2O[C@H](C)C[C@H](N(C)C)[C@H]2O)[C@](C)(O)C[C@@H](C)CN(C)[C@H](C)[C@H]2OC(=O)O[C@@]21C
## Result 0.60

Source listed as ChEMBL document CHEMBL4052714.
